# Lookup of reported half-life at 0.5 μM keyed by entry
# Procedure details: Mouse liver microsome stability assay
# Type: in vitro ADME
# Test context: male, CD1, mouse, microsomes, pH 7.4
Your answer should be a plain number; it is taken to be in min.

// known answers, use as guide
Cn1nc(-c2cc(NS(C)(=O)=O)ccc2Oc2ccccc2)c2cc[nH]c2c1=O    31
Cn1cc(-c2cc(NS(C)(=O)=O)ccc2OC2CCCOC2)c2cc[nH]c2c1=O (stereo not drawn)    34
Cn1cc(-c2cc(C(N)=O)ccc2Oc2ccccc2)c2cc[nH]c2c1=O    33

Return reported half-life at 0.5 μM; argument: Cn1cc(-c2cc(S(C)(=O)=O)ccc2OC2C3CC4CC(C3)CC2C4)c2cc[nH]c2c1=O (stereo not drawn)
2

Looking for the measured half-life at 0.5 μM of Cn1cc(-c2cc(S(=O)(=O)N3CC(F)(F)C3)ccc2OCC2CC2)c2cc[nH]c2c1=O , can you help?
16

###

# Target or system: human BRD4 second bromodomain (BDII_E352-M457) (Homo sapiens (Human), UniProt O60885)
# Procedure details: TR-FRET bromodomain binding assay, BRD4 second bromodomain
Field 'label' (enum: t / f). Set to t when Ki is strictly under 7 nM; else f.

Cn1cc(-c2cc(C3=CCN(C(=O)OC(C)(C)C)CC3)ccc2OCC2CC2)c2cc[nH]c2c1=O    f
Cn1cc(-c2cc(S(C)(=O)=O)ccc2NC2CCCCC2)c2cc[nH]c2c1=O    t
CCS(=O)(=O)c1ccc(OC2CCN(C(=O)OC(C)(C)C)CC2)c(-c2cn(C)c(=O)c3[nH]ccc23)c1    f
Cn1cc(-c2cc(S(C)(=O)=O)ccc2Oc2ccc(F)c(F)c2)c2cc[nH]c2c1=O    f
Cn1cc(-c2cc(C(N)=O)ccc2Oc2ccc(F)cc2F)c2cc[nH]c2c1=O    f
CCS(=O)(=O)Nc1ccc(OCc2ccnn2C)c(-c2cn(C)c(=O)c3[nH]ccc23)c1    f
Cn1cc(-c2cc(NS(C)(=O)=O)ccc2OC2CCC(F)(F)CC2)c2cc[nH]c2c1=O    t
Cn1cc(-c2cc(N3CCCS3(=O)=O)ccc2Oc2ccc(F)cc2F)c2cc[nH]c2c1=O    t

A record lists Cn1cc(-c2cc(C(=O)NCC(F)F)ccc2Oc2ccccc2)c2cc[nH]c2c1=O . Is its Ki below 7 nM?
t

Identify whether the molecule Cn1cc(-c2cc(S(C)(=O)=O)ccc2Oc2ccc3c(c2)C(=O)CC3)c2cc[nH]c2c1=O records Ki below 7 nM.
f

API: query returns whether the molecule falls strictly under 7 nM in Ki. Query: Cn1cc(-c2cc(S(C)(=O)=O)ccc2Oc2ccc(F)cc2F)c2cc(CNc3nccs3)[nH]c2c1=O
f

Lab log: compare recorded Ki with 7 nM; is it strictly lower for CCS(=O)(=O)Nc1ccc(OC2CCOC2)c(-c2cn(C)c(=O)c3[nH]ccc23)c1 (stereo not shown) ?
t

Please determine if Cn1cc(-c2cc(S(C)(=O)=O)ccc2OCC2(C)CC2)c2cc[nH]c2c1=O is below 7 nM in terms of Ki.
t

Below 7 nM on Ki? Entry COc1ccc(NC(=O)c2ccc(Oc3ccc(F)cc3F)c(-c3cn(C)c(=O)c4[nH]ccc34)c2)c(OC)n1
f

###

# Target or system: human BRD4 first bromodomain (BDI_K57-E168) (Homo sapiens (Human))
# Procedure details: TR-FRET bromodomain binding assay, BRD4 first bromodomain
# key: entry, value: Ki
Please give a number only; it is taken to be in nM.

Example entries begin here.
COCCS(=O)(=O)Nc1ccc(Oc2ccc(F)cc2F)c(-c2cn(C)c(=O)c3[nH]ccc23)c1    14.5
CNS(=O)(=O)Nc1ccc(Oc2ccc(F)cc2F)c(-c2cn(C)c(=O)c3[nH]ccc23)c1    11.6
CCN(CC)S(=O)(=O)c1cnc(OCC2CC2)c(-c2cn(C)c(=O)c3[nH]ccc23)c1    10.2
Cn1cc(-c2cc(S(C)(=O)=O)ccc2Oc2ccc(F)cc2)c2cc[nH]c2c1=O    10.7

What does the record list as Ki for Cn1cc(-c2cc(S(N)(=O)=O)ccc2Oc2ccc(F)cc2F)c2cc[nH]c2c1=O ?
7.5

What value of Ki has been recorded for this entry: CCS(=O)(=O)c1ccc(OC2CCS(=O)(=O)CC2)c(-c2cn(C)c(=O)c3[nH]ccc23)c1
9

Entry Cn1cc(-c2cc(S(=O)(=O)c3ccccc3)ccc2OCC2CC2)c2cc[nH]c2c1=O has what Ki?
10.8

###

# Procedure details: Human liver microsome stability assay
# Format: in vitro ADME
# Test context: both sexes, human, microsomes, pH 7.4
Measured half-life at 0.5 μM of individual entries
Please state the figure in min; there is no need to write the unit.

CN1CCN(Cc2cc3c(-c4cc(S(C)(=O)=O)ccc4Oc4ccc(F)cc4F)cn(C)c(=O)c3[nH]2)CC1 [Example 281]    25

Consider the compound shown here: CCS(=O)(=O)N(CC1CCCO1)c1ccc(Oc2ccc(F)cc2F)c(-c2cn(C)c(=O)c3[nH]ccc23)c1 (centres unmarked) [Example 345] What is its recorded half-life at 0.5 μM?
2

Quick one: half-life at 0.5 μM of CNS(=O)(=O)c1cnc(Oc2ccc(F)cc2F)c(-c2cn(C)c(=O)c3[nH]ccc23)c1 [Example 246] ?
52

###

Quick reference for half-life at 0.5 μM among some compounds
# Procedure details: Rat liver microsome stability assay
# Type: in vitro ADME
# Test context: rat liver microsomes (male Sprague-Dawley), 0.5 μM test compound, 0.25 mg/mL microsomal protein, pH 7.4, 37° C.; read-out: Stability in rat liver microsomes (t1/2 in minutes)
Give just the number in min; leave the unit off.

Cn1cc(-c2cc(S(=O)(=O)N3CCCC3)ccc2Oc2ccc(F)cc2F)c2cc[nH]c2c1=O    2

Quick one: half-life at 0.5 μM of Cn1cc(-c2cc(S(C)(=O)=O)ccc2OCCN2CCOCC2)c2cc[nH]c2c1=O ?
70

Look up half-life at 0.5 μM: Cn1cc(-c2cc(S(C)(=O)=O)ccc2OCC2CCCCC2)c2cc[nH]c2c1=O
8

###

# Procedure details: Mouse liver microsome stability assay
# Assay type: in vitro ADME
# Test context: male, CD1, mouse, microsomes, pH 7.4
Here, each record is paired with measured half-life at 0.5 μM data.
Please respond with the number in min and leave the unit unwritten.

# example entries with known answers
CNS(=O)(=O)Nc1ccc(Oc2c(F)cc(F)cc2F)c(-c2cn(C)c(=O)c3[nH]ccc23)c1    10
COc1ccccc1Oc1ccc(S(C)(=O)=O)cc1-c1cn(C)c(=O)c2[nH]ccc12    10
Cn1cc(-c2cc(NS(C)(=O)=O)ccc2Oc2ccccc2)c2cc[nH]c2c1=O    57

Shifting focus to the compound that follows.
If you can, please state the reported half-life at 0.5 μM value of CCS(=O)(=O)C(C)(C)c1ccc(Oc2ccc(F)cc2F)c(-c2cn(C)c(=O)c3[nH]ccc23)c1 .
3

###

# Target or system: human BRD4 second bromodomain (BDII_E352-M457) (Homo sapiens (Human))
# Procedure details: TR-FRET bromodomain binding assay, BRD4 second bromodomain
Property: Ki; scope: individual compounds
Report the figure in nM without appending any unit label.

Worked cases, answers included:
Cn1cc(-c2cc(NS(=O)(=O)CC(F)(F)F)ccc2Oc2ccccc2)c2cc[nH]c2c1=O [Example 5]    6.4
Cn1cc(-c2cc(S(C)(=O)=O)ccc2Oc2cccc(Cl)c2)c2cc[nH]c2c1=O [Example 153]    8.2
Cn1nc(-c2cc(NS(C)(=O)=O)ccc2Oc2ccccc2)c2cc[nH]c2c1=O [Example 80]    6.1

Recorded Ki for Cn1cc(-c2cc(S(C)(=O)=O)ccc2OCC2CCOC2)c2cc[nH]c2c1=O (centres unmarked) [Example 217] , please?
8.1

# lookup: Ki of CCS(=O)(=O)Nc1ccc(Oc2ccc(F)cc2F)c(-c2cn(C)c(=O)c3[nH]c(C(=O)N4CCN(C)CC4)cc23)c1 [Example 338]
12.7

###

Listed here: items and their measured log10(half-life at 0.5 μM).
# Procedure details: Rat liver microsome stability assay
# Format: in vitro ADME
# Test context: rat liver microsomes (male Sprague-Dawley), 0.5 μM test compound, 0.25 mg/mL microsomal protein, pH 7.4, 37° C.; read-out: Stability in rat liver microsomes (t1/2 in minutes)
Scale: log10; quantity: half-life at 0.5 μM; unit before log: min

Cn1cc(-c2cc(CS(C)(=O)=O)ccc2Oc2ccc(F)cc2F)c2cn[nH]c2c1=O [Example 321]    2.01
CCS(=O)(=O)c1ccc(OC2CCN(C)CC2)c(-c2cn(C)c(=O)c3[nH]ccc23)c1 [Example 170]    2.05
Cn1cc(-c2ccccc2C(O)c2ccc(Cl)cc2)c2cc[nH]c2c1=O (stereo not shown) [Example 140]    1.11
Cn1cc(-c2cc(CN3CCCC3)ccc2OCC2CC2)c2cc[nH]c2c1=O [Example 314]    0.60
Cn1cc(-c2cc(S(C)(=O)=O)ccc2Oc2cccc3ccncc23)c2cc[nH]c2c1=O [Example 193]    0.85
Cn1cc(-c2cc(S(C)(=O)=O)ccc2Oc2cc(F)ccc2F)c2cc[nH]c2c1=O [Example 173]    0.70

Please look up its log10(half-life at 0.5 μM): CN(C)S(=O)(=O)c1ccc(OCC2CC2)c(-c2cn(C)c(=O)c3[nH]ccc23)c1 [Example 273]
1.08
